Test system: OVCAR-4 ovarian
Assay: NCI-60 one-dose screen, 48 h
Conditions: 10 µM unless noted
Compounds without any hit were thinned out: in the full panel of roughly 83,000, 20% have a hit. Activity calls are given as the source filed them. How the source made its calls: active means growth percent below 10; inactive means the rest.
Outcome codes: active, inactive

- Molecule: "O=C1Nc2ccccc2/C1=N/N=C/c1ccc(OC2OC(CO)C(O)C(O)C2O)cc1 (stereo not drawn)"
  Classification: "inactive"
- Molecule: "CCCCOC(=O)c1ccc(NC(=O)C(C)N2CCOCC2)cc1 (stereo not drawn)"
  Classification: "inactive"
- Molecule: "Cc1c(C)c2c(c(C)c1NC(=O)/C=C\\C(=O)O)CCC(C)(CCCC(C)CCCC(C)CCCC(C)C)O2 (stereo not drawn)"
  Classification: "inactive"
- Molecule: "Cc1c(Cl)cccc1NS(=O)(=O)c1ccccc1"
  Classification: "inactive"
- Molecule: "CN=C1C=CC(=C(c2ccc(N(C)C)cc2)c2ccc(N(C)C)cc2)C=C1"
  Classification: "active"
- Molecule: "CN1CCN(C(=O)[C@]23CCC(C)(C)C[C@@H]2C2=CC[C@@H]4[C@@]5(C)Cc6c([nH]c7ccccc67)C(C)(C)[C@@H]5CC[C@@]4(C)[C@]2(C)CC3)CC1"
  Classification: "inactive"
- Molecule: "Cl.Fc1c[c-]c(-c2ccccn2)c(F)c1.[Pt].c1ccc(P(c2ccccc2)C([PH+](c2ccccc2)c2ccccc2)[PH+](c2ccccc2)c2ccccc2)cc1"
  Classification: "inactive"
- Molecule: "CCCN1CCN(c2ccc3nc(-c4ccc5nc(-c6cc(OC)c(OC)c(OC)c6)[nH]c5c4)[nH]c3c2)CC1"
  Classification: "inactive"
- Molecule: "O=C1C(Cl)C(c2ccccc2Cl)N1n1cnnc1 (stereo not drawn)"
  Classification: "inactive"
- Molecule: "CN(C)c1ccc(/C=C/c2c(F)cccc2F)cc1"
  Classification: "inactive"
- Molecule: "OC(CBr)c1ccnc2ccccc12 (stereo not drawn)"
  Classification: "inactive"
- Molecule: "Clc1ccc2c(NCCCN3CCN(c4nc(N5CCOCC5)nc5ccccc45)CC3)ccnc2c1"
  Classification: "inactive"
- Molecule: "Cl.Fc1c[c-]c(-c2ccccn2)c(F)c1.[Pt].c1ccc([PH+](C[PH+](c2ccccc2)c2ccccc2)c2ccccc2)cc1"
  Classification: "active"
- Molecule: "Clc1ccc(/C=N\\N=c2\\scc(-c3ccc(Cl)cc3)n2/N=C/c2ccc(Cl)cc2)cc1"
  Classification: "inactive"
- Molecule: "O=c1cc(-c2ccc(OCc3ccccc3)cc2)oc2c(I)c(OCc3ccccc3)cc(OCc3ccccc3)c12"
  Classification: "inactive"
- Molecule: "N=C(N)c1ccc(-c2ccc(-c3ccc(Cl)cn3)s2)cc1"
  Classification: "inactive"
- Molecule: "CN(C)CCn1cc(-c2ccc3c(Nc4ccc(CC(=O)Nc5cccc(F)c5)cc4)ncnc3c2)cn1"
  Classification: "active"
- Molecule: "COc1cc(CNC(=O)/C=C/C=C/c2ccc3c(c2)OCO3)ccc1OCc1cn(-c2ccc(Cl)c(Cl)c2)nn1"
  Classification: "active"

====

System: HOP-62 NSCLC
Assay: NCI-60 one-dose screen, 48 h
Details: 10 µM unless noted
About 83,000 compounds went through this panel and 20% of them were active in at least one assay; those are over-represented in the sample as a whole. Active and inactive are the calls of the source. How the source made its calls: active means growth percent below 10; inactive means the rest.
Outcome codes: active, inactive

- Molecule: "CC1(C)N=C(N)N=C(N)N1c1ccc(Cl)c(Cl)c1"
  Classification: "inactive"
- Molecule: "CCOC(=O)c1cnn2c(-c3ccc(Cl)cc3)nc(NCc3ccccc3)nc12"
  Classification: "inactive"
- Molecule: "C=CCN1C(=O)[C@]2(SC1=S)[C@H](c1cccc(Cl)c1)CN(C)[C@]21C(=O)NC2C=CC(Cl)=C[C@H]21 (stereo not given in full)"
  Classification: "inactive"
- Molecule: "COc1cc2oc(-c3cccc(C(=O)Nc4ccc(C#N)cc4)c3)cc(=O)c2c(O)c1OC"
  Classification: "active"
- Molecule: "CCc1nc2ccccc2[nH]1"
  Classification: "inactive"
- Molecule: "O=C1CSC(c2ccc(O)cc2)N1c1nnc(Cn2cnnc2)o1 (stereo not given)"
  Classification: "inactive"
- Molecule: "CCCCN1CCN(c2ccc3nc(-c4ccc5nc(-c6cc(OC)c(OC)c(OC)c6)[nH]c5c4)[nH]c3c2)CC1"
  Classification: "inactive"
- Molecule: "CS(=O)(=O)c1ccc(N/N=C/c2c(-c3ccc(S(C)(=O)=O)cc3)[nH]c3ccc(F)cc23)cc1"
  Classification: "inactive"
- Molecule: "O=C(NCCOCCOCCNc1cccc2c1C(=O)N(C1CCCNC1=O)C2=O)c1cc2c(o1)C(=O)c1ccccc1C2=O (stereo not given)"
  Classification: "active"
- Molecule: "Cc1cc(Cc2cc(C)cc(C(C)(C)C)c2O)c(O)c(C(C)(C)C)c1"
  Classification: "inactive"
- Molecule: "Cc1nc(Nc2ccc(NC(=S)Nc3ccccc3)cc2)nc2nc(SCc3ccccc3)[nH]c(=O)c12"
  Classification: "inactive"
- Molecule: "O=C(NCc1cccnc1)c1cc(-c2csc3c(=O)cc(N4CCOCC4)oc23)cc2c1OCCO2"
  Classification: "inactive"
- Molecule: "O=C1Nc2ccccc2SC1C1SC(=S)N(Cc2ccccc2)C1=O (stereo not given)"
  Classification: "inactive"
- Molecule: "O=[N+]([O-])c1ccc2[nH]cc(-c3c4ccsc4cc4[nH]c5ccc([N+](=O)[O-])cc5c34)c2c1"
  Classification: "inactive"
- Molecule: "CCN(CC)CC(O)CNc1c2ccc(Cl)cc2nc2ccc(OC)cc12 (stereo not given)"
  Classification: "active"
- Molecule: "NC(=Nc1ccc(N)cc1)C(N)=Nc1ccc(N)cc1"
  Classification: "inactive"
- Molecule: "CCCCCCNC(=O)c1cc(NCc2cc(O)ccc2O)ccc1O"
  Classification: "inactive"
- Molecule: "CCOC(=O)c1nnn(-c2ccccc2)c1C1=CN(C)CCC1"
  Classification: "inactive"
- Molecule: "CCOC(=O)c1ccc(NC(=O)CCCN(CC)CC)cc1"
  Classification: "inactive"
- Molecule: "CCCCC1COc2cccc3c(SCC(=O)N(C)c4cccc(Cl)c4)cc[n+]1c23 (stereo not given)"
  Classification: "inactive"
- Molecule: "CN(CCC(=O)/C(=C\\c1ccccc1)c1ccc(Cl)cc1)Cc1ccccc1"
  Classification: "inactive"
- Molecule: "CNCCNc1nc2ccccc2c2c(=O)c3cc(F)ccc3oc12"
  Classification: "inactive"
- Molecule: "COc1ccc2cc(-c3ccc(C(=O)NN)c(C)n3)ccc2c1"
  Classification: "inactive"
- Molecule: "COc1ccc(-c2nc3ccccn3c2/C=C/C(=O)c2cc(OC)c(OC)c(OC)c2)cc1"
  Classification: "inactive"
- Molecule: "CC(=O)Nc1ccc(C(=O)/C=C/c2ccccc2)cc1"
  Classification: "inactive"
- Molecule: "COc1ccc(/C=N/NC(=O)Cn2c(-c3ccc(S(C)(=O)=O)cc3)nc3cc(Cl)ccc32)cc1"
  Classification: "inactive"
- Molecule: "CN1C[C@@H](c2ccc(Cl)cc2)[C@]2(NC(=S)N(c3ccccc3)C2=O)[C@@]12C(=O)NC1C=CC(Br)=C[C@H]12 (stereo not given in full)"
  Classification: "inactive"
- Molecule: "COC(=O)CNC(=O)C(=O)c1c(O)c(O)c(C(C)C)c2cc(C)c(-c3c(C)cc4c(C(C)C)c(O)c(O)c(C(=O)C(=O)NCC(=O)OC)c4c3O)c(O)c12"
  Classification: "inactive"
- Molecule: "CNC(=O)NCC1OC(n2cnc3c(NC(=O)Nc4ccccc4)ncnc32)C2OC(C)(C)OC12 (stereo not given)"
  Classification: "inactive"
- Molecule: "Cn1c(NCCc2ccc(O)c(O)c2)nc2c1c(=O)n(Cc1ccc(Cl)cc1)c(=O)n2C"
  Classification: "inactive"
- Molecule: "CC(=O)Nc1cccc(C2=CC(c3ccc(C)cc3)n3ncnc3N2)c1 (stereo not given)"
  Classification: "inactive"
- Molecule: "CCNCCNc1cc(-c2ccc(C(=O)OC)cc2)c(C#N)c2nc3ccccc3n12"
  Classification: "inactive"
- Molecule: "C=C1c2c(C)nn(-c3ccc(O)cc3)c2N(C)C23C[C@@H]1C1(C)c4c(C)nn(-c5ccc(O)cc5)c4N(C)C(C)(C[C@H]12)C3 (stereo not given in full)"
  Classification: "inactive"
- Molecule: "Clc1ccc2c(NCCCN3CCN(c4nc(N5CCOCC5)nc5ccccc45)CC3)ccnc2c1"
  Classification: "inactive"
- Molecule: "CCN(CC)CC(=O)Nc1cccc(C(=O)OC(C)C)c1"
  Classification: "inactive"
- Molecule: "CCOC(=O)Cc1csc2nc(-c3ccccc3)nn12"
  Classification: "inactive"
- Molecule: "CC(=O)Nc1ccc2c(c1)Cc1c(F)cccc1-2"
  Classification: "inactive"
- Molecule: "NC(N)=N/N=C(/c1ccccc1)c1ccc(N)cc1"
  Classification: "inactive"
- Molecule: "CNC1(C#N)CCN(Cc2ccccc2)CC1"
  Classification: "inactive"
- Molecule: "O=c1[nH]c(=O)n(C2CC(O)C(CO)O2)cc1CO (stereo not given)"
  Classification: "inactive"
